Hi! I'm sharing some IC50 results obtained with BCL-2 binding to biotinylated BAD peptide (Homo sapiens).
Sequence (P10415 whole entry): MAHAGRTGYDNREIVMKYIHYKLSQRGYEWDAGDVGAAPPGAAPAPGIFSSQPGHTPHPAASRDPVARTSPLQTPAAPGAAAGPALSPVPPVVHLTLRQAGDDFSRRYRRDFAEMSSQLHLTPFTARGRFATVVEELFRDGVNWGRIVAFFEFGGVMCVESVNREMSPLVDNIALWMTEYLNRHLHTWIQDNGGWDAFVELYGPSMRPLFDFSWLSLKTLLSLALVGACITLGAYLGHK

Record excerpt, results attached:
> print(dat)
                               query.smiles              val
1  CCCCN(CCCC)C(=O)c1cc(C)n(-c2ccc(NC(=O)NCc3ccccc3)cc2C(=O)N2Cc3ccccc3C[C@H]2CO)n1    52 to 65.5 nM
2  CCCCN(CCCC)C(=O)c1cc(C)n(-c2ccc(NC(=O)Nc3ccc4ccccc4c3)cc2C(=O)N2Cc3ccccc3C[C@H]2CO)n1  2430 to 2560 nM
3  CCCCN(CCCC)C(=O)c1cc(C)n(-c2ccc(NC(=O)N[C@@H](C)c3ccccc3)cc2C(=O)N2Cc3ccccc3C[C@H]2CO)n1  86.3 to 91.3 nM

Prompt: Look up IC50 for this molecule: `CCCCN(CCCC)C(=O)c1cc(C)n(-c2ccc(NC(=O)Nc3cccs3)cc2C(=O)N2Cc3ccccc3C[C@H]2CO)n1`
Response: 2090 to 2440 nM

Prompt: Then `CCCCN(CCCC)C(=O)c1cc(C)n(-c2ccc(NC(=O)Nc3ccc(F)c(F)c3)cc2C(=O)N2Cc3ccccc3C[C@H]2CO)n1` ?
Response: 3200 to 3930 nM

Prompt: Let us now turn to `CCCCN(CCCC)C(=O)c1cc(C)n(-c2ccc(NC(=O)Nc3c(C)cccc3CC)cc2C(=O)N2Cc3ccccc3C[C@H]2CO)n1`
Response: 618 to 713 nM

Prompt: `CCCCN(CCCC)C(=O)c1cc(C)n(-c2ccc(NC(=O)NCc3cccc(C)c3)cc2C(=O)N2Cc3ccccc3C[C@H]2CO)n1` ?
Response: 89 to 108 nM

Prompt: Same thing, different molecule: `CCCCN(CCCC)C(=O)c1cc(C)n(-c2ccc(NC(=O)Nc3ccccc3OCC)cc2C(=O)N2Cc3ccccc3C[C@H]2CO)n1`
Response: 508 to 697 nM

###

# pIC50 per entry for BCL-2 binding to biotinylated BAD peptide (Homo sapiens, UniProt P10415)
pIC50: −log10 of the molar value.

Prompt: Item CCCCN(CCCC)C(=O)c1cc(C)n(-c2ccc(NC(=O)Nc3cccc(OC)c3)cc2C(=O)N2Cc3ccccc3C[C@H]2CO)n1 [Example 3] has what recorded pIC50?
Response: 5.99 to 6.05

Prompt: Can you check CCCCN(CCCC)C(=O)c1cc(C)n(-c2ccc(NC(=O)N[C@@H](C)c3ccc(OC)cc3)cc2C(=O)N2Cc3ccccc3C[C@H]2CO)n1 [Example 20] next?
Response: 7.12 to 7.15

Prompt: Same lookup for CCCCN(CCCC)C(=O)c1cc(C)n(-c2ccc(NC(=O)Nc3c(C)cccc3C)cc2C(=O)N2Cc3ccccc3C[C@H]2CO)n1 [Example 30] , please.
Response: 6.62 to 6.68

###

The following are reported pIC50 results, target or system BCL-2 binding to biotinylated BAD peptide (Homo sapiens, UniProt P10415).
pIC50: −log10 of the molar value.

> print(dat)
                               query.smiles  measured.property           val
1  CCCCN(CCCC)C(=O)c1cc(C)n(-c2ccc(NC(=O)Nc3cccc(Cl)c3C)cc2C(=O)N2Cc3ccccc3C[C@H]2CO)n1              pIC50  6.35 to 6.36

Prompt: GET /values?readout=pIC50&item= `CCCCN(CCCC)C(=O)c1cc(C)n(-c2ccc(NC(=O)Nc3ccc(SC)cc3)cc2C(=O)N2Cc3ccccc3C[C@H]2CO)n1`
Response: 6.01 to 6.10

Prompt: Now consider `CCCCN(CCCC)C(=O)c1cc(C)n(-c2ccc(NC(=O)Nc3cc(Cl)cc(Cl)c3)cc2C(=O)N2Cc3ccccc3C[C@H]2CO)n1` and answer again.
Response: < 4.80
